- tested.on: T1, Recombinant human CD4 (R&D Systems, Cat. 10327-CD) (human, UniProt P01730 26-390, limits assumed)
- T1 construct: Bought soluble recombinant protein used as analyte at 100 nM; also called huCD4
- experimental.details: BLI (Octet Red384), non-clonal supernatant on AMC sensor, 100 nM human CD4
parameter.measured: Response

{"columns": ["binder", "recorded.result"],
 "data": [
  ["75110_07J24A (antibody, V domains shown, Non-clonal AlivaMab Mouse Kappa hybridoma supernatant, captured by anti-mouse IgG Fc (human V regions, mouse Fc)) VH: QAQLQESGPGLVKPSETLSLTCTVSGGSISSYYYNWIRQPAGKGLEWIGRIYTSGRTDYNPSLKSRVTMSADTSKNQFSLKLSSVTAADTAVYYCARDEGPTDAFDIWGQGTMVTVSS VL: DIVMTQTPLSLPVTPGEPASISCRSSQSLLDSDDGNTYLDWYLQKPGQSPHLLIYTLSYRASGVPDRFSGSGSGSDFTLKISRVEAEDVGVYYCMQRIEFPFTFGPGTKVDIK", 0.14],
  ["75110_05E05A (antibody, V domains shown, Non-clonal AlivaMab Mouse Kappa hybridoma supernatant, captured by anti-mouse IgG Fc (human V regions, mouse Fc)) VH: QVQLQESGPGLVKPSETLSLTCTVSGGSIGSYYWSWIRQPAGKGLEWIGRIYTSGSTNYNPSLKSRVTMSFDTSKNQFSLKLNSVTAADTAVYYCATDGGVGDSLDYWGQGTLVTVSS VL: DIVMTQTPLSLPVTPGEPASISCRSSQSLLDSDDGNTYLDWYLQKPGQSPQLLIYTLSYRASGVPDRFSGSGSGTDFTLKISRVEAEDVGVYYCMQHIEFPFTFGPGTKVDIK", 0.24],
  ["75110_01C18A (antibody, V domains shown, Non-clonal AlivaMab Mouse Kappa hybridoma supernatant, captured by anti-mouse IgG Fc (human V regions, mouse Fc)) VH: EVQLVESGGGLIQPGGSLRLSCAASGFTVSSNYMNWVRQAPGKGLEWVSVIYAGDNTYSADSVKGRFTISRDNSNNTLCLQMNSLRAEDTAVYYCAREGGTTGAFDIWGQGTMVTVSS VL: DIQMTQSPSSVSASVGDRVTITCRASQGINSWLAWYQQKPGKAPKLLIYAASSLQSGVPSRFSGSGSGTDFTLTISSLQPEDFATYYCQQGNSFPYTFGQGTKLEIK", 0.25]
]}

Value source: patent US20220112288A1
